# System: HL-60(TB) leukemia
# assay comment: NCI-60 one-dose screen, 48 h
# test parameters: 10 µM unless noted
This is part of a sample that, as a whole, favours compounds with a hit. Of some 83,000 tested, about 20% had one in any assay. Activity calls are given as the source filed them. Rule for the calls: active = growth percent below 10; inactive = the rest.
Hi! Could you answer with just one of these? TRUE = active, FALSE = inactive

Tell me the recorded outcome of this test for CCC1=C[C@@H]2CN(C1)Cc1c([nH]c3ccccc13)[C@@](C(=O)OC)(c1cc3c(cc1OC)N(C=O)[C@H]1[C@@](O)(C(=O)OC)[C@H](OC(C)=O)[C@]4(CC)[C@@H]5C[C@@H]5CN5CC[C@]31[C@@H]54)C2 .
TRUE

Identify the outcome logged in this assay for the compound shown: CCOC(=O)c1c(NC(=O)C2CCCCC2C(=O)O)sc2c1CCCC2 (centres undefined)
FALSE

For CCN(CC)CCNC(=O)n1cc(-c2ccncc2)c(-c2cc(Cl)cc(OC)c2)n1 , which call appears in the assay record?
FALSE

Which outcome was entered for the compound CC(C)(C)c1cnc(CSc2cnc(NC(=O)C3CCNCC3)s2)o1 in this test?
TRUE

Tell me the assay call for CCOC(=O)c1c2c(n3cccc(F)c13)C(=O)c1ncccc1C2=O please.
TRUE

So what was the verdict on O=C(N/N=C/c1ccc(F)cc1)c1ccc(C(F)(F)F)nc1Nc1cccc(C(F)(F)F)c1 in this test?
TRUE

Would you mind telling me which call this test gave Nc1n[nH]c2ccc([C@@H]3Nc4cc5c(cc4[C@H]4C6CCC(C6)[C@@H]34)C(=O)NC5)cc12 (some centres undefined) ?
TRUE

Status in this test for CCc1nc2c(=O)[nH]cnc2o1 ?
FALSE

How did this test come out for COc1ccc(-c2cc(-c3ccc(Cl)cc3)c(C#N)c(=O)n2CCCCC(=O)Nc2ccccc2N)cc1 ?
TRUE

Called result for C=C1C(=O)O[C@H]2[C@H]1CC/C(COC(=O)/C=C/C(=O)NCc1ccc(Cn3c(=O)sn(-c4ccccc4)c3=O)cc1)=C\CC[C@@]1(C)O[C@@H]21
TRUE

What classification did COc1cc(-c2nc3sc4c(c3c(=O)[nH]2)CCCCCC4)cc(OC)c1OC end up with in this test?
TRUE

How was Cn1cnc([N+](=O)[O-])c1Sc1nc(N)nc2nc[nH]c12 classified in this test?
FALSE

Hello, I am checking results. What call was entered for NS(=O)(=O)c1ccc(C2C3=C(CCCC3=O)OC3=C2C(=O)c2ccccc2C3=O)cc1 (centres undefined) ?
TRUE

# fetch the recorded call for Cc1ccc(-c2nc([P+](c3ccccc3)(c3ccccc3)c3ccccc3)c(N3CCOCC3)o2)cc1 here
TRUE

For CC(C)(C)c1nn(-c2ccccc2)c2c1C(=O)CSC(c1ccccc1Cl)N2 (centres undefined) , which call appears in the assay record?
TRUE

Dear all, I need the recorded test outcome for Cc1ccc(-c2nc(N3CCNCC3)c3oc(-c4ccccc4)nc3n2)cc1 , thank you.
TRUE

Which outcome was entered for the compound O=C(/C=C/c1cn(-c2ccccc2)nc1-c1ccc([N+](=O)[O-])cc1)c1ccc(Cl)cc1 in this test?
FALSE

Hi, do you know how COc1nc2ccccc2s1 came out in this test?
FALSE

Each compound tested received a call. Report the one for Nc1nc(Nc2cc(Cl)cc(Cl)c2)nn1S(=O)(=O)c1ccc2ccccc2c1 .
FALSE
